These entries and their values trace back to patent US20110038869A1.

# tested.system: T1, CD32bECDHis (human, UniProt P31994 43-223, limits assumed)
# T1 construct: Produced in HEK-293F cells; also called extracellular domain of CD32b with C-terminal His tag; soluble CD32b
# T1 sequence (looked up): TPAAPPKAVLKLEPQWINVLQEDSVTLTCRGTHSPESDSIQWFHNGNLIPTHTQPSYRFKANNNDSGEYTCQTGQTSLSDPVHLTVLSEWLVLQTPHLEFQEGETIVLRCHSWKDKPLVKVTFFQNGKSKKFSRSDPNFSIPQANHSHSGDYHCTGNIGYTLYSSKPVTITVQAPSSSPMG
# assay.info: SPR BIAcore 3000, antibody immobilized, CD32bECDHis analyte
Kindly state koff for each of the entries shown.
Report only the number, with the unit s⁻¹ understood.

Query string: # get_value(readout='koff', item= Antibody 028 (antibody, V domains shown, List 1 gives no VL for antibody 028; The VL is therefore uncertain; also called HuMab 028) VH: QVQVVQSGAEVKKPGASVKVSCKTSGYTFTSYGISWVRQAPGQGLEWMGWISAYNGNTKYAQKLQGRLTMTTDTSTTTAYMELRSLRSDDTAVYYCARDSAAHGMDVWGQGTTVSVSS VL: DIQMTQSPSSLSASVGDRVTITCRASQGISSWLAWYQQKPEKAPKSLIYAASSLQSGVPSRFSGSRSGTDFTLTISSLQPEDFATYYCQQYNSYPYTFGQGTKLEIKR )
Result string: 0.00199

Query string: # get_value(readout='koff', item= Antibody 024 (antibody, V domains shown, also called HuMab 024) VH: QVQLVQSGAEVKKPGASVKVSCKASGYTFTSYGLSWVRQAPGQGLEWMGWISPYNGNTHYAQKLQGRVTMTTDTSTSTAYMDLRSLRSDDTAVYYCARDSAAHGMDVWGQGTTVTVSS VL: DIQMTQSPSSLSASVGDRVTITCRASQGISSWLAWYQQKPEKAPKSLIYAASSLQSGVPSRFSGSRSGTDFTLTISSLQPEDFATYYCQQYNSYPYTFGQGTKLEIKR )
Result string: 0.00126

Query string: # get_value(readout='koff', item= Antibody 026 (antibody, V domains shown, Human antibody; also called HuMab 026) VH: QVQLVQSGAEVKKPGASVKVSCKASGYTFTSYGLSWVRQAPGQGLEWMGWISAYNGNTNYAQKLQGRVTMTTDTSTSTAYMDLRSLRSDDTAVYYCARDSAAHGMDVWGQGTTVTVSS VL: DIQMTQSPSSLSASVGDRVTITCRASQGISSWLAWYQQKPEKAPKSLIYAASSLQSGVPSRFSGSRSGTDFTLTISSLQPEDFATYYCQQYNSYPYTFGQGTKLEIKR )
Result string: 0.00179

Query string: # get_value(readout='koff', item= Antibody 038 (antibody, human IgG1, V domains shown, Human antibody; also called HuMab 038) VH: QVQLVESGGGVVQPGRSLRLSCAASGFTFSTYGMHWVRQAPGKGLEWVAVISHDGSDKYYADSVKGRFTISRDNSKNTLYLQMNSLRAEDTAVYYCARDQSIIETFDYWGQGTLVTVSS VL: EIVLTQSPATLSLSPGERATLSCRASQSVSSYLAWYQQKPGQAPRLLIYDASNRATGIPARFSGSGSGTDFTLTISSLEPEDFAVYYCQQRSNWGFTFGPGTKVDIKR )
Result string: 0.00156

Query string: # get_value(readout='koff', item= Antibody 020 (antibody, V domains shown, also called HuMab 020) VH: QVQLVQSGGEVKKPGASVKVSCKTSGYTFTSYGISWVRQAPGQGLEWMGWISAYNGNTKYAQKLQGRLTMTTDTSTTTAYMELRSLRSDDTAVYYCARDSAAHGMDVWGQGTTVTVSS VL: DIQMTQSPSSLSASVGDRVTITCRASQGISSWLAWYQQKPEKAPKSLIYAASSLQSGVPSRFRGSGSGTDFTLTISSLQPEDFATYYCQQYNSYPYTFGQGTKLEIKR )
Result string: 0.00363

Query string: # get_value(readout='koff', item= Antibody 022 (antibody, V domains shown, also called HuMab 022) VH: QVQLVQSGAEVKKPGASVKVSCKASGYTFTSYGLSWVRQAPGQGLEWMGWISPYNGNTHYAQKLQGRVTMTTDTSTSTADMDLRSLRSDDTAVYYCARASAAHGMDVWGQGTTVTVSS VL: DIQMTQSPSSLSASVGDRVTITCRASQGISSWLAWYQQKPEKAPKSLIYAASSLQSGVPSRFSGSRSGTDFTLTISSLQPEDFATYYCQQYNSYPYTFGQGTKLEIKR )
Result string: 0.00103

Query string: # get_value(readout='koff', item= Antibody 016 (antibody, human IgG1, V domains shown, Human antibody; also called HuMab 016) VH: QVQLVESGGGVVQPGRSLRLSCAASGFTFSSYGIHWVRQAPGKGLEWVAVIGYDGSDKNYADSVKGRFTIFRDNSKNTLYLQMNSLRAEDTAVYYCARDQLGDAFDIWGQGTMVTVSS VL: EIVLTQSPATLSLSPGERATLSCKASQSVSSSLAWYQQKPGQAPRLLIYDASNRATGIPARFSGSGSGTDFTLTISSLEPEDFAVYYCQQRSNWPPYTFGQGTKLEIKR )
Result string: 0.0028
